Cited source: ChEMBL document CHEMBL5120795

Biological target: Poly [ADP-ribose] polymerase tankyrase-1 (Homo sapiens, UniProt O95271)
Sequence (O95271 whole entry): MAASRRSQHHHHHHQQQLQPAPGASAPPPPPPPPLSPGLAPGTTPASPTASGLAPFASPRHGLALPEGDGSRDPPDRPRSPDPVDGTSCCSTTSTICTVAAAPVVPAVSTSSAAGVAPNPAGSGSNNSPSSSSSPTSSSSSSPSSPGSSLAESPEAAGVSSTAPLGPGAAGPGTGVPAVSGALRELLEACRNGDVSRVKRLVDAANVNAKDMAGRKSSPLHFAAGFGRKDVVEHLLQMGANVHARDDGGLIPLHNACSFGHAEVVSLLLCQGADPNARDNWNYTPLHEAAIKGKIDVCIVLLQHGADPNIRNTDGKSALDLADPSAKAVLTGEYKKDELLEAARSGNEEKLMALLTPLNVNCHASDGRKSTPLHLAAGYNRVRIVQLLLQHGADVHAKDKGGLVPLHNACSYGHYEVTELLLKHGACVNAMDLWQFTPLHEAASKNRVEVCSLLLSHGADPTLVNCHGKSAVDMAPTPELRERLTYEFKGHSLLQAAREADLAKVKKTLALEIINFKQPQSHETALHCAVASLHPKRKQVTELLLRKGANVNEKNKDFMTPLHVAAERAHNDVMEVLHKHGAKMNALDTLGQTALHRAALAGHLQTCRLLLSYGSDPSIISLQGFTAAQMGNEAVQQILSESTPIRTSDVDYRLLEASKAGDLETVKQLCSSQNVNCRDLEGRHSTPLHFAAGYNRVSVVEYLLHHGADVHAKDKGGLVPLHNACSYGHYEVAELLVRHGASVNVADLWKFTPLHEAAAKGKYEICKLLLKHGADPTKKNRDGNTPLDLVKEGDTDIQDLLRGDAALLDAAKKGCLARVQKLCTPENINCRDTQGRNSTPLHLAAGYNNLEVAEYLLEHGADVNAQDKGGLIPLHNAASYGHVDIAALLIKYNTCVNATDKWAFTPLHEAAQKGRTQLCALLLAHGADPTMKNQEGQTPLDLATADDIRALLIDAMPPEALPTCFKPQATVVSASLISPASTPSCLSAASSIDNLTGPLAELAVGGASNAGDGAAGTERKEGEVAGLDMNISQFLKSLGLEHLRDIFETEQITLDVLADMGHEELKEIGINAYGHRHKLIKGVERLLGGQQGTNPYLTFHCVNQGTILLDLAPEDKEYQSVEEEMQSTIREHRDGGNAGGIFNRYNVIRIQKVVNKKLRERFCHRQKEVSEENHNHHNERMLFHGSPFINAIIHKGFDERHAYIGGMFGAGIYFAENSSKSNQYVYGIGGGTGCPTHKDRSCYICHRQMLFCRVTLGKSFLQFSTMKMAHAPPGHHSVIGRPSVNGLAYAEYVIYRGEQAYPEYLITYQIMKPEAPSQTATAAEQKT
Experiment: Inhibition of TNKS1 (unknown origin)
QUANTITY_MEASURED: IC50 (nM)
Just the number please, in nM, no unit attached.

Q: Recorded IC50 for O=C(Nc1cccc2c(=O)[nH]ccc12)[C@H]1CCCNC1 , please?
Ans: 9

----------
Experiment: Stability in mouse liver microsomes assessed as compound remaining measured after 30 mins relative to control
Format: ADME, Microsome
Details: read-out: Stability
QUANTITY_MEASURED: remaining at 0.5 h (%)
A number alone suffices; assume %.

Q: Which remaining at 0.5 h value is on record for COc1ccccc1N1CCN(c2nc3c(c(=O)[nH]2)CCCC3)CC1 ?
Ans: 0
